Kindly state Growth percent (G%) for each of the entries shown.
# System: T-47D
# method-summary: cells
# Format: cell-based
# measurement-conditions: T-47D, 10^−5 M, 48 h
In your response, put the unit directly after the numeric value.

For the compound Cn1c(=O)c2c(=O)c3c4c(oc3oc2c2ccccc21)C(=O)c1ccccc1C4=O , give its reported Growth percent (G%).
83.56%

For the compound O=C1c2ccccc2C(=O)c2c1oc1c2c(=O)[nH]c2ccccc21 , give its reported Growth percent (G%).
22.52%

For the compound O=C1c2ccccc2C(=O)c2c1oc1c2c(=O)[nH]c2ccc(Cl)cc21 , give its reported Growth percent (G%).
−58.11%

For the compound Cn1c(=O)c2c3c(oc2c2ccccc21)C(=O)c1ccccc1C3=O , give its reported Growth percent (G%).
9.70%

For the compound O=C1C(Cl)=C(c2c(O)c3c(=O)n(-c4ccccc4)c4ccccc4c3oc2=O)C(=O)c2ccccc21 , give its reported Growth percent (G%).
4.47%

For the compound CCn1c(=O)c2c(=O)c3c4c(oc3oc2c2ccccc21)C(=O)c1ccccc1C4=O , give its reported Growth percent (G%).
85.06%

====

# test-system: JNK2 (Homo sapiens)
# Sequence (P45984 whole entry): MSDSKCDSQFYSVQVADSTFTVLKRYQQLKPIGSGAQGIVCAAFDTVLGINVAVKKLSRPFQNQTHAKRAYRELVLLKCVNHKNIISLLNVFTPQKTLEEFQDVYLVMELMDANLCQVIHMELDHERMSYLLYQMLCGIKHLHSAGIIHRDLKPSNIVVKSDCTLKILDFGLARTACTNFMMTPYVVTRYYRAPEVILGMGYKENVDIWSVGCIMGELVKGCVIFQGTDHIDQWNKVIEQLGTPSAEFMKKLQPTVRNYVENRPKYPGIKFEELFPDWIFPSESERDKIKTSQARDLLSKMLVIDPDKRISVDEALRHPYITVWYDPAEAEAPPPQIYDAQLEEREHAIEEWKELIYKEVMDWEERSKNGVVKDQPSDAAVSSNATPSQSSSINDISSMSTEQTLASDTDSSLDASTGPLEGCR
# method-summary: in vitro kinase assay, GST-c-Jun
# Format: biochemical
value-kind: IC50 (µM)
Entry rule: numbers only, all in µM.

Please look at O=C1c2ccccc2C(=O)c2c1oc1c2c(=O)[nH]c2ccc(Cl)cc21 and tell me its recorded IC50 on JNK2 (Homo sapiens).
24

Please look at O=C1C(Cl)=C(c2c(O)c3c(=O)n(-c4ccccc4)c4ccccc4c3oc2=O)C(=O)c2ccccc21 and tell me its recorded IC50 on JNK2 (Homo sapiens).
4.2

====

# test-system: UniProtKB Q16539
# Sequence (Q16539 whole entry): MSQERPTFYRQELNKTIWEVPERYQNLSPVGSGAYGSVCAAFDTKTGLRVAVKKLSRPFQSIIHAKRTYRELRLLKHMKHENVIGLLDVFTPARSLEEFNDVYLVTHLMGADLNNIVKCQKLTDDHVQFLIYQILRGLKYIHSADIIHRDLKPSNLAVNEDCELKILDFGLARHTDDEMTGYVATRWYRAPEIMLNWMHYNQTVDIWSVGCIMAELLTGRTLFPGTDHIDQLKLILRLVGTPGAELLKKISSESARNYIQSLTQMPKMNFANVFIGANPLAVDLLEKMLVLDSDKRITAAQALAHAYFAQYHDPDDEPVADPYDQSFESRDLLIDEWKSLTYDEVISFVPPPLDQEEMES
# method-summary: in vitro kinase assay, GST-ATF2
# Type: biochemical
# measurement-conditions: read-out: p38MAPKα IC50; 10 μM GST-ATF2
pIC50: −log10 of the molar value.
value-kind: pIC50

Please look at Cn1c(=O)c2c(=O)c3c4c(oc3oc2c2ccccc21)C(=O)c1ccccc1C4=O and tell me its recorded pIC50 on UniProtKB Q16539.
< 3.70

====

# Test system: HCT-15
# method-summary: cells
# Assay type: cell-based
# measurement-conditions: HCT-15, 10^−5 M, 48 h
Output TRUE for Growth percent (G%) not less than 80%; output FALSE otherwise.

Hi team, for O=C1c2ccccc2C(=O)c2c1oc1c2c(=O)[nH]c2ccc(Cl)cc21 , is the recorded Growth percent (G%) at or above 80%?
FALSE

Hi team, for Cn1c(=O)c2c(=O)c3c4c(oc3oc2c2ccccc21)C(=O)c1ccccc1C4=O , is the recorded Growth percent (G%) at or above 80%?
TRUE

Hi team, for O=C1C(Cl)=C(c2c(O)c3c(=O)n(-c4ccccc4)c4ccccc4c3oc2=O)C(=O)c2ccccc21 , is the recorded Growth percent (G%) at or above 80%?
FALSE

Hi team, for Cn1c(=O)c2c3c(oc2c2ccccc21)C(=O)c1ccccc1C3=O , is the recorded Growth percent (G%) at or above 80%?
TRUE

Hi team, for O=C1c2ccccc2C(=O)c2c1oc1c2c(=O)[nH]c2ccccc21 , is the recorded Growth percent (G%) at or above 80%?
FALSE

====

# test-system: ERK2 (Rattus norvegicus)
# Sequence (P63086 whole entry): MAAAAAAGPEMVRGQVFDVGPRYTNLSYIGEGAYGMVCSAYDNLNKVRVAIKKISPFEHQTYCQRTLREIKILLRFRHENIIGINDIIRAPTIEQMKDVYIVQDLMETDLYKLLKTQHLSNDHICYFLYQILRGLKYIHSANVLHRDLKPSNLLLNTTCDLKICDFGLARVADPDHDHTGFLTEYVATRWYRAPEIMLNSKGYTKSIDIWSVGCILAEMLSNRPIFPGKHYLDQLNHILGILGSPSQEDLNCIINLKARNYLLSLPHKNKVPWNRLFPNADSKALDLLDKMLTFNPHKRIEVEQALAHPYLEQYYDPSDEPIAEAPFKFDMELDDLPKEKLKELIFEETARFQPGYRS
# method-summary: in vitro radioactive kinase assay, Ets-1 phosphorylation by ERK2
# Type: biochemical
# measurement-conditions: ERK2 IC50, 10 μM ATP
value-kind: pIC50
On this scale, pIC50 is minus log10 of a concentration expressed in M (mol/L).

Please look at O=C1c2ccccc2C(=O)c2c1oc1c2c(=O)[nH]c2ccc(Cl)cc21 [3b] and tell me its recorded pIC50 on ERK2 (Rattus norvegicus).
6.70

====

Kindly state IC50 for each of the entries shown.
# test-system: UniProtKB P63086
# method-summary: in vitro radioactive kinase assay, Ets-1 phosphorylation by ERK2
# Format: biochemical
# measurement-conditions: ERK2 IC50, 100 μM ATP, 10 μM Ets-1

Please look at O=C1c2ccccc2C(=O)c2c1oc1c2c(=O)[nH]c2ccccc21 and tell me its recorded IC50 on UniProtKB P63086.
10.2 µM

Please look at O=C1c2ccccc2C(=O)c2c1oc1c2c(=O)[nH]c2ccc(Cl)cc21 and tell me its recorded IC50 on UniProtKB P63086.
0.6 µM

====

# test-system: ERK1 (Homo sapiens)
# Sequence (P27361 whole entry, species assumed): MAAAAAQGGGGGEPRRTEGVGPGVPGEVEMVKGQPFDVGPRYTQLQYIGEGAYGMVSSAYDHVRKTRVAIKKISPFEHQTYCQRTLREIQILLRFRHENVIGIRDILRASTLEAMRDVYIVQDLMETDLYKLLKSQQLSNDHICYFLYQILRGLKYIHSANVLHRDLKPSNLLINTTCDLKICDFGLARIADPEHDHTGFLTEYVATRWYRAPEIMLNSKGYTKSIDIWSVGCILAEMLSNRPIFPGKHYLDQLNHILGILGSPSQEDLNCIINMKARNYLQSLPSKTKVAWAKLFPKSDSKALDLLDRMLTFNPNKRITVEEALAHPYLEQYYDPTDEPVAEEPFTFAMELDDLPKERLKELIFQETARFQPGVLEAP
# method-summary: in vitro radioactive kinase assay, Ets-1 phosphorylation by ERK1
# Assay type: biochemical
# measurement-conditions: IC50 towards inhibiting ERK, ERK isoform not given
value-kind: IC50

For the molecule O=C1c2ccccc2C(=O)c2c1oc1c2c(=O)[nH]c2ccccc21 , give its reported IC50.
~9 µM

====

Kindly state pIC50 for each of the entries shown.
# test-system: ERK1 (Homo sapiens)
# method-summary: in vitro radioactive kinase assay, Ets-1 phosphorylation by ERK1
# Format: biochemical
# measurement-conditions: ERK1 IC50, 100 μM ATP, 10 μM Ets-1
On this scale, pIC50 is minus log10 of a concentration expressed in M (mol/L).

For the compound O=C1c2ccccc2C(=O)c2c1oc1c2c(=O)[nH]c2ccc(Cl)cc21 , give its reported pIC50.
6.30

For the compound O=C1C(Cl)=C(c2c(O)c3c(=O)n(-c4ccccc4)c4ccccc4c3oc2=O)C(=O)c2ccccc21 , give its reported pIC50.
6.72

For the compound O=C1c2ccccc2C(=O)c2c1oc1c2c(=O)[nH]c2ccccc21 , give its reported pIC50.
5.04

====

# Tested on: UACC-62
# method-summary: cells
# Type: cell-based
# measurement-conditions: UACC-62, 10^−5 M, 48 h
Checkbox rule: Growth percent (G%) lower than 80% = MET; Growth percent (G%) not lower than 80% = NOT MET.

I wonder whether Cn1c(=O)c2c(=O)c3c4c(oc3oc2c2ccccc21)C(=O)c1ccccc1C4=O has Growth percent (G%) below 80%. Can you tell?
NOT MET

I wonder whether Cn1c(=O)c2c3c(oc2c2ccccc21)C(=O)c1ccccc1C3=O has Growth percent (G%) below 80%. Can you tell?
MET

I wonder whether O=C1C(Cl)=C(c2c(O)c3c(=O)n(-c4ccccc4)c4ccccc4c3oc2=O)C(=O)c2ccccc21 has Growth percent (G%) below 80%. Can you tell?
MET

I wonder whether O=C1c2ccccc2C(=O)c2c1oc1c2c(=O)[nH]c2ccccc21 has Growth percent (G%) below 80%. Can you tell?
NOT MET

I wonder whether CCn1c(=O)c2c(=O)c3c4c(oc3oc2c2ccccc21)C(=O)c1ccccc1C4=O has Growth percent (G%) below 80%. Can you tell?
MET

I wonder whether O=C1c2ccccc2C(=O)c2c1oc1c2c(=O)[nH]c2ccc(Cl)cc21 has Growth percent (G%) below 80%. Can you tell?
MET

====

# test-system: JNK2 (Homo sapiens)
# method-summary: in vitro kinase assay, GST-c-Jun
# Type: biochemical
# measurement-conditions: read-out: JNK2 IC50; 2 μM GST-c-Jun (1–221)
pIC50: −log10 of the molar value.
value-kind: pIC50

For the molecule Cn1c(=O)c2c(=O)c3c4c(oc3oc2c2ccccc21)C(=O)c1ccccc1C4=O , give its reported pIC50.
< 3.70

====

# System: SW-620
# method-summary: cells
# Format: cell-based
# measurement-conditions: SW-620, 10^−5 M, 48 h
value-kind: Growth percent (G%)
Entry rule: numbers only, all in %.

For the compound O=C1c2ccccc2C(=O)c2c1oc1c2c(=O)[nH]c2ccccc21 , give its reported Growth percent (G%).
89.23

For the compound O=C1c2ccccc2C(=O)c2c1oc1c2c(=O)[nH]c2ccc(Cl)cc21 , give its reported Growth percent (G%).
−53.04

For the compound CCn1c(=O)c2c(=O)c3c4c(oc3oc2c2ccccc21)C(=O)c1ccccc1C4=O , give its reported Growth percent (G%).
73.47

For the compound Cn1c(=O)c2c(=O)c3c4c(oc3oc2c2ccccc21)C(=O)c1ccccc1C4=O , give its reported Growth percent (G%).
103.1

For the compound O=C1C(Cl)=C(c2c(O)c3c(=O)n(-c4ccccc4)c4ccccc4c3oc2=O)C(=O)c2ccccc21 , give its reported Growth percent (G%).
18.61

For the compound Cn1c(=O)c2c3c(oc2c2ccccc21)C(=O)c1ccccc1C3=O , give its reported Growth percent (G%).
86.24

====

Kindly state Growth percent (G%) for each of the entries shown.
# System: KM 12
# method-summary: cells
# Assay type: cell-based
# measurement-conditions: KM 12, 10^−5 M, 48 h
In your response, put the unit directly after the numeric value.

For the molecule Cn1c(=O)c2c3c(oc2c2ccccc21)C(=O)c1ccccc1C3=O , give its reported Growth percent (G%).
91.54%

For the molecule CCn1c(=O)c2c(=O)c3c4c(oc3oc2c2ccccc21)C(=O)c1ccccc1C4=O , give its reported Growth percent (G%).
86.61%

For the molecule Cn1c(=O)c2c(=O)c3c4c(oc3oc2c2ccccc21)C(=O)c1ccccc1C4=O , give its reported Growth percent (G%).
95.63%

For the molecule O=C1C(Cl)=C(c2c(O)c3c(=O)n(-c4ccccc4)c4ccccc4c3oc2=O)C(=O)c2ccccc21 , give its reported Growth percent (G%).
18.86%

For the molecule O=C1c2ccccc2C(=O)c2c1oc1c2c(=O)[nH]c2ccccc21 , give its reported Growth percent (G%).
66.22%

For the molecule O=C1c2ccccc2C(=O)c2c1oc1c2c(=O)[nH]c2ccc(Cl)cc21 , give its reported Growth percent (G%).
0.12%
